Test system: 677734-321-R-J1-PDC complex spheroid viability
Test: Anticancer human tumor 677734-321-R-J1-PDC patient-derived soft tissue sarcoma cell line growth inhibition [POLQ]
Conditions: second compound 0.0316 µM; first compound 0.1 µM; active compounds read low
Protocol: Multicellular complex tumor spheroid response to Polymerase (POL) inhibitors (novobiocin, ART-558, RP6685) in combination with a variety of drugs and investigational agents in selected tumor cell lines The POL inhibitors (novobiocin, ART-558, and RP6685) were evaluated both individually and in combination with standard of care and investigational anticancer small molecules within a complex spheroid model of solid tumors. . […]
measured metric: viability, T/C (%)
Supply the numeric figure in %, leaving out any unit text.

For orientation, consider the following solved cases.
# compound, unit text, viability, T/C
data = [
    ("CC(C)n1c(=O)n(C)c2cnc3cc(F)c(-c4ccc(OCCCN5CCCCC5)nc4)cc3c21 + Nc1ccc(C#CCN(C(=O)Cc2ncc(C(F)(F)F)cc2C(F)(F)F)c2ccc(F)cc2)nn1", "%", 106),
    ("COc1cccc2c1C(=O)c1c(O)c3c(c(O)c1C2=O)CC(O)(C(=O)CO)CC3OC1CC(N)C(O)C(C)O1 (stereo unspecified) + Cc1cccc(N(C)C(=O)C2C(O)CCN2c2nc(C)cc(C(F)(F)F)c2C#N)c1", "%", 68.2),
    ("CC1COCCN1c1cc(-c2ccnn2C)c2ccnc(-c3ccn[nH]3)c2n1 (stereo unspecified) + COC1C(OC(N)=O)C(O)C(Oc2ccc3c(O)c(NC(=O)c4ccc(O)c(CC=C(C)C)c4)c(=O)oc3c2C)OC1(C)C", "%", 65.1),
    ("CCCS(=O)(=O)Nc1ccc(F)c(C(=O)c2c[nH]c3ncc(-c4ccc(Cl)cc4)cc23)c1F + Cc1cccc(N(C)C(=O)C2C(O)CCN2c2nc(C)cc(C(F)(F)F)c2C#N)c1", "%", 105),
    ("CCc1cc2c(N3CCc4c(cc(Cn5ccnc5)cc4-c4cn(C)nc4C(F)(F)F)C3=O)ccnc2c(OC)n1 + Cc1cccc(N(C)C(=O)C2C(O)CCN2c2nc(C)cc(C(F)(F)F)c2C#N)c1", "%", 94.4),
    ("O=c1[nH]cc(F)c(=O)[nH]1 + COC1C(OC(N)=O)C(O)C(Oc2ccc3c(O)c(NC(=O)c4ccc(O)c(CC=C(C)C)c4)c(=O)oc3c2C)OC1(C)C", "%", 98.6),
]

Challenge: Identify measured viability, T/C corresponding to CC[C@@]1(O)C(=O)OCc2c1cc1n(c2=O)Cc2cc3c(CN(C)C)c(O)ccc3nc2-1 + Nc1ccc(C#CCN(C(=O)Cc2ncc(C(F)(F)F)cc2C(F)(F)F)c2ccc(F)cc2)nn1
Response given: 15.3

Challenge: State its viability, T/C: CC1COCCN1c1cc(-c2ccnn2C)c2ccnc(-c3ccn[nH]3)c2n1 (stereo unspecified) + Nc1ccc(C#CCN(C(=O)Cc2ncc(C(F)(F)F)cc2C(F)(F)F)c2ccc(F)cc2)nn1
Response given: 46.8

Challenge: Specify viability, T/C for C#Cc1c(F)ccc2cc(O)cc(-c3ncc4c(N5CC6CCC(C5)N6)nc(OCC56CCCN5CC(F)C6)nc4c3F)c12 (stereo unspecified) + Nc1ccc(C#CCN(C(=O)Cc2ncc(C(F)(F)F)cc2C(F)(F)F)c2ccc(F)cc2)nn1 and stop.
Response given: 117

Challenge: Item O=c1[nH]cc(F)c(=O)[nH]1 + Cc1cccc(N(C)C(=O)C2C(O)CCN2c2nc(C)cc(C(F)(F)F)c2C#N)c1 : provide viability, T/C
Response given: 110

Challenge: Could you please provide reported viability, T/C for COc1cc2cc(C(=O)CCC(=O)O)sc2cc1OC + Cc1cccc(N(C)C(=O)C2C(O)CCN2c2nc(C)cc(C(F)(F)F)c2C#N)c1 ? Thanks!
Response given: 87.6

* * *

Test system: 677734-321-R-J1-PDC complex spheroid viability
Assay: Anticancer human tumor 677734-321-R-J1-PDC cell line growth inhibition [POLQ]; active means viability on the fitted dose curve at most 10% of control; inactive means the rest;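 also: spheroids exposed to compounds for one week; 100% = vehicle DMSO treated spheroids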
Settings: second compound 1 µM; first compound 0.0316 µM
Your response should consist of one outcome taken from True = active, False = inactive

Answered cases to consult:
# compound, label value
records = [
    ("CC1COCCN1c1cc(-c2ccnn2C)c2ccnc(-c3ccn[nH]3)c2n1 (stereo not given) + Cc1cccc(N(C)C(=O)C2C(O)CCN2c2nc(C)cc(C(F)(F)F)c2C#N)c1", "False"),
    ("COc1cccc(OCCCN)c1-c1cc(Nc2cnc(C#N)cn2)n[nH]1 + Cc1cccc(N(C)C(=O)C2C(O)CCN2c2nc(C)cc(C(F)(F)F)c2C#N)c1", "True"),
    ("CCCS(=O)(=O)Nc1ccc(F)c(C(=O)c2c[nH]c3ncc(-c4ccc(Cl)cc4)cc23)c1F + Nc1ccc(C#CCN(C(=O)Cc2ncc(C(F)(F)F)cc2C(F)(F)F)c2ccc(F)cc2)nn1", "False"),
    ("CC1COCCN1c1cc(-c2ccnn2C)c2ccnc(-c3ccn[nH]3)c2n1 (stereo not given) + Nc1ccc(C#CCN(C(=O)Cc2ncc(C(F)(F)F)cc2C(F)(F)F)c2ccc(F)cc2)nn1", "False"),
    ("Cn1ncnc1[C@H]1c2n[nH]c(=O)c3cc(F)cc(c23)N[C@@H]1c1ccc(F)cc1 + COC1C(OC(N)=O)C(O)C(Oc2ccc3c(O)c(NC(=O)c4ccc(O)c(CC=C(C)C)c4)c(=O)oc3c2C)OC1(C)C", "False"),
    ("CNCc1ccc(-c2[nH]c3cc(F)cc4c3c2CCNC4=O)cc1 + COC1C(OC(N)=O)C(O)C(Oc2ccc3c(O)c(NC(=O)c4ccc(O)c(CC=C(C)C)c4)c(=O)oc3c2C)OC1(C)C", "False"),
    ("CC1COCCN1c1cc(-c2ccnn2C)c2ccnc(-c3ccn[nH]3)c2n1 (stereo not given) + COC1C(OC(N)=O)C(O)C(Oc2ccc3c(O)c(NC(=O)c4ccc(O)c(CC=C(C)C)c4)c(=O)oc3c2C)OC1(C)C", "False"),
    ("CCc1cc2c(N3CCc4c(cc(Cn5ccnc5)cc4-c4cn(C)nc4C(F)(F)F)C3=O)ccnc2c(OC)n1 + Nc1ccc(C#CCN(C(=O)Cc2ncc(C(F)(F)F)cc2C(F)(F)F)c2ccc(F)cc2)nn1", "False"),
]

Challenge: # fetch the recorded call for CC1COCCN1c1cc(C2(S(C)(=N)=O)CC2)nc(-c2ccnc3[nH]ccc23)n1 (stereo not given) + COC1C(OC(N)=O)C(O)C(Oc2ccc3c(O)c(NC(=O)c4ccc(O)c(CC=C(C)C)c4)c(=O)oc3c2C)OC1(C)C here
Response given: False

Challenge: Record lookup: outcome of this test for COc1cc(C2c3cc4c(cc3C(OC3OC5COC(C)OC5C(O)C3O)C3COC(=O)C23)OCO4)cc(OC)c1O (stereo not given) + COC1C(OC(N)=O)C(O)C(Oc2ccc3c(O)c(NC(=O)c4ccc(O)c(CC=C(C)C)c4)c(=O)oc3c2C)OC1(C)C ?
Response given: False

* * *

Test system: 677734-321-R-J1-PDC complex spheroid viability
Test: Anticancer human tumor 677734-321-R-J1-PDC cell line growth inhibition [POLQ]; active = viability on the fitted dose curve at most 10% of control; inactive = the rest;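 also: spheroids exposed to compounds for one week; 100% = vehicle DMSO treated spheroids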
Conditions: second compound 1 µM; first compound 0.0316 µM
Valid outcomes are listed here; reply with one: class 1 for active, class 0 for inactive

Solved entries:
# compound, system name, label value
measured = [
    ("COc1cccc(OCCCN)c1-c1cc(Nc2cnc(C#N)cn2)n[nH]1 + Nc1ccc(C#CCN(C(=O)Cc2ncc(C(F)(F)F)cc2C(F)(F)F)c2ccc(F)cc2)nn1", "677734-321-R-J1-PDC complex spheroid viability", "class 1"),
    ("O=C(c1cc(Cc2n[nH]c(=O)c3ccccc23)ccc1F)N1CCN(C(=O)C2CC2)CC1 + COC1C(OC(N)=O)C(O)C(Oc2ccc3c(O)c(NC(=O)c4ccc(O)c(CC=C(C)C)c4)c(=O)oc3c2C)OC1(C)C", "677734-321-R-J1-PDC complex spheroid viability", "class 0"),
    ("COc1cc2cc(C(=O)CCC(=O)O)sc2cc1OC + Nc1ccc(C#CCN(C(=O)Cc2ncc(C(F)(F)F)cc2C(F)(F)F)c2ccc(F)cc2)nn1", "677734-321-R-J1-PDC complex spheroid viability", "class 0"),
    ("CCCS(=O)(=O)Nc1ccc(F)c(C(=O)c2c[nH]c3ncc(-c4ccc(Cl)cc4)cc23)c1F + COC1C(OC(N)=O)C(O)C(Oc2ccc3c(O)c(NC(=O)c4ccc(O)c(CC=C(C)C)c4)c(=O)oc3c2C)OC1(C)C", "677734-321-R-J1-PDC complex spheroid viability", "class 0"),
]

With those in mind, consider the next compound.
Challenge: Call for entry C=CCn1c(=O)c2cnc(Nc3ccc(N4CCN(C)CC4)cc3)nc2n1-c1cccc(C(C)(C)O)n1 + Nc1ccc(C#CCN(C(=O)Cc2ncc(C(F)(F)F)cc2C(F)(F)F)c2ccc(F)cc2)nn1 :
Response given: class 0
